Assignment: determine reported pIC50 for the given compounds.
- System: 323965-272-R-J2-PDC complex spheroid viability
- ASSAY_OVERVIEW: Anticancer human tumor 323965-272-R-J2-PDC patient-derived pancreatic carcinoma cell line growth inhibition [CLK]
- CONDITIONS_USED: curve of first compound; second compound 0.316 µM
pIC50: −log10 of the molar value.

Input line: What does the data say about its pIC50? Entry: CCN1CCN(Cc2ccc(Nc3ncc(F)c(-c4cc(F)c5nc(C)n(C(C)C)c5c4)n3)nc2)CC1 + CNC(=O)c1ccc(Nc2nc(OC3CCCC3)c3c(-c4ccc5nc(C)oc5c4)c[nH]c3n2)c(OC)c1
Output line: < 6.00

Input line: pIC50 lookup needed for COc1cccc2c1C(=O)c1c(O)c3c(c(O)c1C2=O)CC(O)(C(=O)CO)CC3OC1CC(N)C(O)C(C)O1 (stereo unspecified) + CNC(=O)c1ccc(Nc2nc(OC3CCCC3)c3c(-c4ccc5nc(C)oc5c4)c[nH]c3n2)c(OC)c1 , thanks.
Output line: > 7.50

Input line: What value of measured pIC50 is listed for C=C(F)C(=O)N1CCN(c2nc(OCC3CCCN3C)nc3c2CCN(c2cccc4cccc(Cl)c24)C3)CC1CC#N (stereo unspecified) + CN1CCN(c2cc(C(=O)Nc3cc4cc(-c5cnn(C)c5)ccc4cn3)ccn2)CC1 ?
Output line: > 7.50

Input line: Please report the recorded pIC50 for CC(=O)O[C@H]1C(=O)[C@@]2(C)[C@H]([C@H](OC(=O)c3ccccc3)[C@]3(O)C[C@H](OC(=O)[C@H](O)[C@@H](NC(=O)c4ccccc4)c4ccccc4)C(C)=C1C3(C)C)[C@]1(OC(C)=O)CO[C@@H]1C[C@@H]2O + CN1CCN(c2cc(C(=O)Nc3cc4cc(-c5cnn(C)c5)ccc4cn3)ccn2)CC1 .
Output line: > 7.50

Input line: What does the record list as pIC50 for CC(Nc1ccc2c(c1)OCCn1cc(N3C(=O)OCC3C(F)F)nc1-2)C(N)=O (stereo unspecified) + CN1CCN(c2cc(C(=O)Nc3cc4cc(-c5cnn(C)c5)ccc4cn3)ccn2)CC1 ?
Output line: > 7.50

Input line: Record request: pIC50 value, item CCCS(=O)(=O)Nc1ccc(F)c(C(=O)c2c[nH]c3ncc(-c4ccc(Cl)cc4)cc23)c1F + CN1CCN(c2cc(C(=O)Nc3cc4cc(-c5cnn(C)c5)ccc4cn3)ccn2)CC1
Output line: > 7.50

---

- Tested on: 323965-272-R-J2-PDC complex spheroid viability
- ASSAY_OVERVIEW: Anticancer human tumor 323965-272-R-J2-PDC cell line growth inhibition [CLK];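 also: spheroids exposed to agents for seven days before readout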;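 as to viability, T/C: percent of DMSO vehicle control wells so 100% = untreated growth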
- CONDITIONS_USED: second compound 0.316 µM; first compound 0.0316 µM; stronger effect = lower value
TEST_READOUT: viability, T/C (%)
Only the number, expressed in %, is required.

Input line: // lookup viability, T/C for O=C(c1cc(Cc2n[nH]c(=O)c3ccccc23)ccc1F)N1CCN(C(=O)C2CC2)CC1 + CN1CCN(c2cc(C(=O)Nc3cc4cc(-c5cnn(C)c5)ccc4cn3)ccn2)CC1
Output line: 23.2

Input line: Which viability, T/C is reported for this compound? Nc1ccccc1NC(=O)c1ccc(CNC(=O)OCc2cccnc2)cc1 + CN1CCN(c2cc(C(=O)Nc3cc4cc(-c5cnn(C)c5)ccc4cn3)ccn2)CC1
Output line: 26.4

Input line: Need viability, T/C of O=c1[nH]cc(F)c(=O)[nH]1 + CN1CCN(c2cc(C(=O)Nc3cc4cc(-c5cnn(C)c5)ccc4cn3)ccn2)CC1 , thanks.
Output line: 26.1

Input line: Name the recorded viability, T/C for CCN1CCN(Cc2ccc(Nc3ncc(F)c(-c4cc(F)c5nc(C)n(C(C)C)c5c4)n3)nc2)CC1 + CN1CCN(c2cc(C(=O)Nc3cc4cc(-c5cnn(C)c5)ccc4cn3)ccn2)CC1 .
Output line: 25.5

Ref: PubChem BioAssay AID2060619
